Test system: growth hormone secretion
assayText: GHRP induced growth hormone secretion, intravenous administration (Rat IV)
Type: in vivo
recordedConditions: Table III; iv injection, serum GH 10 min after injection
Non-standard residues stand in square brackets, D forms with d. Residues, ends and D or L forms follow the SMILES beside them. d2Nal = N[C@H](Cc1ccc2ccccc2c1)C(=O)O; Ahx = NCCCCCC(=O)O; Ava = NCCCCC(=O)O
# reported RAT IV ED50; entries follow
Dear colleague, please return just the value in µg, with no unit written.

What does the data say about its RAT IV ED50? Entry: NCCCC[C@H](NC(=O)[C@H](Cc1ccccc1)NC(=O)[C@@H](Cc1c[nH]c2ccccc12)NC(=O)[C@@H](Cc1c[nH]c2ccccc12)NC(=O)[C@@H](N)Cc1c[nH]cn1)C(N)=O [H w w F K amide] (H-H[dW][dW]FK-NH2)
50

What does the data say about its RAT IV ED50? Entry: NCCCCC(=O)N[C@H](Cc1ccc2ccccc2c1)C(=O)N[C@H](Cc1ccc2ccccc2c1)C(=O)N[C@@H](Cc1ccccc1)C(=O)N1CCC[C@H]1C(N)=O [(Ava) b b F P amide] (H-[Ava][d2Nal][d2Nal]FP-NH2)
50

What does the data say about its RAT IV ED50? Entry: NCCCC[C@H](NC(=O)[C@H](Cc1ccccc1)NC(=O)[C@@H](Cc1ccc2ccccc2c1)NC(=O)[C@@H](Cc1ccc2ccccc2c1)NC(=O)[C@@H](N)Cc1c[nH]cn1)C(N)=O [H b b F K amide] (H-H[d2Nal][d2Nal]FK-NH2)
15.4

What does the data say about its RAT IV ED50? Entry: NCCCCCC(=O)N[C@H](Cc1ccc2ccccc2c1)C(=O)N[C@H](Cc1ccc2ccccc2c1)C(=O)N[C@@H](Cc1ccccc1)C(=O)N[C@@H](CCCCN)C(N)=O [(ahx) b b F K amide] (H-[Ahx][d2Nal][d2Nal]FK-NH2)
250

###

assayedSystem: rat pituitary cells (Rattus norvegicus)
Sequence (O08725 whole entry): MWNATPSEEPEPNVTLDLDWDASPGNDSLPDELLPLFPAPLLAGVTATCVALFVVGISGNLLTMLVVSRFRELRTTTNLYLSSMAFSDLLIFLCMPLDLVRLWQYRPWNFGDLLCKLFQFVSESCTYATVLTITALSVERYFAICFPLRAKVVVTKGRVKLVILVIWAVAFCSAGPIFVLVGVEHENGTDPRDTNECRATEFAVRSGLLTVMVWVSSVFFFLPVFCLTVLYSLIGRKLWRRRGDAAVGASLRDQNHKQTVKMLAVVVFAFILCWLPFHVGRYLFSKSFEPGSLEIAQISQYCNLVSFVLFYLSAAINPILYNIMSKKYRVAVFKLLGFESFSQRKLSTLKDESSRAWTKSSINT
recordedConditions: read-out: PIT Cell EC50; Table III, formula IV compounds; GH release, 15 min incubation
Non-standard residues stand in square brackets, D forms with d. Residues, ends and D or L forms follow the SMILES beside them. ξ: configuration not given here. d2Nal = N[C@H](Cc1ccc2ccccc2c1)C(=O)O; ξ2Nal = NC(Cc1ccc2ccccc2c1)C(=O)O; NMeF = CN[C@@H](Cc1ccccc1)C(=O)O; hPhe = N[C@@H](CCc1ccccc1)C(=O)O; ξK = NCCCCC(N)C(=O)O; Ava = NCCCCC(=O)O; GABA = NCCCC(=O)O
quantityMeasured: pEC50
Remember, pEC50 is on a log scale: it is -log10 of the molar concentration.

{"columns": ["compound", "pEC50"],
 "data": [
  ["NCCCCC(=O)N[C@H](Cc1ccc2ccccc2c1)C(=O)N[C@H](Cc1ccc2ccccc2c1)C(=O)N[C@@H](CCc1ccccc1)C(=O)N[C@@H](CCCCN)C(N)=O [(Ava) b b hF K amide] (H-[Ava][d2Nal][d2Nal][hPhe]K-NH2)", 8.30],
  ["CN(C(=O)[C@@H](Cc1c[nH]c2ccccc12)NC(=O)[C@@H](Cc1c[nH]c2ccccc12)NC(=O)[C@@H](N)Cc1c[nH]cn1)[C@@H](Cc1ccccc1)C(=O)N[C@@H](CCCCN)C(N)=O [H w w nmF K amide] (H-H[dW][dW][NMeF]K-NH2)", 7.43],
  ["NCCCCC(NC(=O)[C@H](Cc1ccccc1)NC(=O)[C@@H](Cc1ccc2ccccc2c1)NC(=O)C(Cc1ccc2ccccc2c1)NC(=O)CCCN)C(N)=O (stereo partly shown) [(Ab) b b F K amide] (H-[GABA][ξ2Nal][d2Nal]F[ξK]-NH2)", 9.40]
]}

Now for the compound whose pEC50 we want.
What does the data say about its pEC50? Entry: NCCCCC(=O)N[C@H](Cc1ccc2ccccc2c1)C(=O)N[C@H](Cc1ccc2ccccc2c1)C(=O)N[C@@H](Cc1ccccc1)C(=O)N1CCC[C@H]1C(N)=O [(Ava) b b F P amide] (H-[Ava][d2Nal][d2Nal]FP-NH2)
7.29
